Molecular target: D(2) dopamine receptor (Rattus norvegicus, UniProt P61169)
Sequence (P61169 whole entry): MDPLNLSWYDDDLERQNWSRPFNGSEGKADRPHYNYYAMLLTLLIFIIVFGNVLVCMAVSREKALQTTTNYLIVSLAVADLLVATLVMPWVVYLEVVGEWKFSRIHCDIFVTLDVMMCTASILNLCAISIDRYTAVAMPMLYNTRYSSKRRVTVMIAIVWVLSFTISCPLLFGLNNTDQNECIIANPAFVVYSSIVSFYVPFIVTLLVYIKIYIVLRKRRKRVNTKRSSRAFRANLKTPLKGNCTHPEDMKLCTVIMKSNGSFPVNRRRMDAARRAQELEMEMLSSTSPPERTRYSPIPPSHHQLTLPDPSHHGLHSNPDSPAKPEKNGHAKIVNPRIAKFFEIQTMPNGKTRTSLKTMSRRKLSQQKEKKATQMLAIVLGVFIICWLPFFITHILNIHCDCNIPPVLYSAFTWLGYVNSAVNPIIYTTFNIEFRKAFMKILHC
Assay: The binding affinity was evaluated on Dopamine receptor D2 expressed in rat striatum by using [3H]spiperone as radioligand
Structures can show the parent of a compound that is named as a salt.
reportedProperty: pKi

compound	measuredTarget	reportedMeasurement
COc1cccc(OC)c1OCCNCC1Oc2ccccc2CC1c1ccccc1 (stereo not given)	D(2) dopamine receptor (Rattus norvegicus, UniProt P61169)	< 6

For each of the compounds below, note its pKi.
1. COc1cccc(OC)c1OCCNCC1C(=O)c2ccccc2CC1c1ccccc1 (stereo not given)
2. COc1cccc(OC)c1OCCNCC1C(=O)c2ccccc2OC1c1ccccc1 (stereo not given)
3. CCCN(CCC)C1CCc2cccc(O)c2C1 (stereo not given)
4. COc1cccc(OC)c1OCCNCC1COc2ccccc2O1 (stereo not given) [WB-4101 hydrochloride]

Response:
1. < 6
2. < 6
3. < 6
4. 6.91

----------
Give measured pKi for each item. Keep answers brief.
Biological target: Alpha-1A adrenergic receptor (Homo sapiens, UniProt P35348)
Sequence (P35348 whole entry): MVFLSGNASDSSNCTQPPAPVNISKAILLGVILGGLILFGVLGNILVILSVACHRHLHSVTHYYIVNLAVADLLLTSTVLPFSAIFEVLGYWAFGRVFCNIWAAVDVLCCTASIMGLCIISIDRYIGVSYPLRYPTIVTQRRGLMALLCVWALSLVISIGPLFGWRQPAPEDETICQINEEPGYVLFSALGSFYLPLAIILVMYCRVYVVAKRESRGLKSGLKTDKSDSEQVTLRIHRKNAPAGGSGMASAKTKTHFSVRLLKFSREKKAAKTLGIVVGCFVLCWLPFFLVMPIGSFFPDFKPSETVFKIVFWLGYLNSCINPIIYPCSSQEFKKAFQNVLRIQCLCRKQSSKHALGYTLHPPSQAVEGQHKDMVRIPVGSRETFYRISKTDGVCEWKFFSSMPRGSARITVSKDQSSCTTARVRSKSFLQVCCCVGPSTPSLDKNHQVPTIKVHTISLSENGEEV
Assay: The binding affinity was evaluated on cloned human alpha-1A adrenergic receptor expressed in chinese hamster ovary(CHO) cells by using [3H]prazosin as radioligand.
Structures can show the parent of a compound that is named as a salt.
Give bare numbers.

molecule	measuredTarget	pKi
COc1cccc(OC)c1OCCNCC1C(=O)c2ccccc2OC1c1ccccc1 (stereo not given)	Alpha-1A adrenergic receptor (Homo sapiens, UniProt P35348)	9.22
COc1cccc(OC)c1OCCNCC1COc2ccccc2O1 (stereo not given) [WB-4101 hydrochloride]	Alpha-1A adrenergic receptor (Homo sapiens, UniProt P35348)	9.37
COc1cccc(OC)c1OCCNCC1C(=O)c2ccccc2CC1c1ccccc1 (stereo not given)	Alpha-1A adrenergic receptor (Homo sapiens, UniProt P35348)	8.06
COc1cccc(OC)c1OCCNCC1C(=O)c2ccccc2SC1c1ccccc1 (stereo not given)	Alpha-1A adrenergic receptor (Homo sapiens, UniProt P35348)	7.42

Shift focus to the following entry.
Prompt: What reported pKi corresponds to COc1cccc(OC)c1OCCNCC1Oc2ccccc2CC1c1ccccc1 (stereo not given) on Alpha-1A adrenergic receptor (Homo sapiens, UniProt P35348)?
Response: 6.78

----------
Give measured pKi for each item. Keep answers brief.
Target: Alpha-1D adrenergic receptor (Homo sapiens)
Sequence (P25100 whole entry): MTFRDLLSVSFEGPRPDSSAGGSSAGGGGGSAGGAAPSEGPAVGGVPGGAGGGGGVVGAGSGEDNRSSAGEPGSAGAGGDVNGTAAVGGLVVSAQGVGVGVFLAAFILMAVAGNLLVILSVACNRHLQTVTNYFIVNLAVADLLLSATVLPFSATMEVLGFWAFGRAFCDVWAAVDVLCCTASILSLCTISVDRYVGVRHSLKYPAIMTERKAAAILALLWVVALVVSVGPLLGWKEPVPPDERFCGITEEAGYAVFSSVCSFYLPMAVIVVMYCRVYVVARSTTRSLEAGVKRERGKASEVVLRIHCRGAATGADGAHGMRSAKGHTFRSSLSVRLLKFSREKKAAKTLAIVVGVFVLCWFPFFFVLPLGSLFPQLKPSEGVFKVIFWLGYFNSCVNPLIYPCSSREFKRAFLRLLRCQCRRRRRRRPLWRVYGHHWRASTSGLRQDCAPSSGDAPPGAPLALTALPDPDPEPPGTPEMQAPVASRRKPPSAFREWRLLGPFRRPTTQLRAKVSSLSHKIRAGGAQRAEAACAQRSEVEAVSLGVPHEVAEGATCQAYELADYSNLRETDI
Experiment: The binding affinity was evaluated on cloned human alpha-1D adrenergic receptor expressed in chinese hamster ovary(CHO) cells by using [3H]prazosin as radioligand.
One number for each entry.

Recorded pKi, per entry:
compound	pKi
COc1cccc(OC)c1OCCNCC1Oc2ccccc2CC1c1ccccc1 (centres undefined)	6.86
COc1cccc(OC)c1OCCNCC1C(=O)c2ccccc2CC1c1ccccc1 (centres undefined)	6.88
COc1cccc(OC)c1OCCNCC1C(=O)c2ccccc2OC1c1ccccc1 (centres undefined)	7.93

Shift focus to the following entry.
Prompt: pKi lookup needed for COc1cccc(OC)c1OCCNCC1C(=O)c2ccccc2SC1c1ccccc1 (centres undefined) , thanks.
Response: 6.37

----------
Molecular target: Alpha-1B adrenergic receptor (Homo sapiens)
Sequence (P35368 whole entry): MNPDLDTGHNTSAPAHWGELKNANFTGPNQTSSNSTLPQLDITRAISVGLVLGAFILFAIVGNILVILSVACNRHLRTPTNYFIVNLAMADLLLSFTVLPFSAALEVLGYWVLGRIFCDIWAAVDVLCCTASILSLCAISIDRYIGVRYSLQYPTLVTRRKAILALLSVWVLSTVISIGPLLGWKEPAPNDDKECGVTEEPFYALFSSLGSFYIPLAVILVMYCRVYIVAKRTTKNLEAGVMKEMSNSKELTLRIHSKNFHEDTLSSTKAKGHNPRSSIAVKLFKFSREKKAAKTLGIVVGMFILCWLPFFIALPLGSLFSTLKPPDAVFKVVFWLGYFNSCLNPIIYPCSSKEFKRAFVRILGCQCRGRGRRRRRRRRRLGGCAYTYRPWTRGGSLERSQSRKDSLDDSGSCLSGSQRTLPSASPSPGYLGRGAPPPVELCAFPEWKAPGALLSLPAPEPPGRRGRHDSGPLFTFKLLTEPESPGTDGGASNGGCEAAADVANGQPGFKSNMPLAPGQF
Assay: The binding affinity was evaluated on cloned human Alpha-1B adrenergic receptor expressed in chinese hamster ovary(CHO) cells by using [3H]prazosin as radioligand.
Give measured pKi for each item. Keep answers brief.

Recorded pKi, per entry:
compound	reportedMeasurement
COc1cccc(OC)c1OCCNCC1C(=O)c2ccccc2SC1c1ccccc1 (centres undefined)	< 6
COc1cccc(OC)c1OCCNCCOc1ccccc1OCc1ccccc1	9.27
COc1cccc(OC)c1OCCNCC1=Cc2ccccc2OC1c1ccccc1 (centres undefined)	6.84

Shift focus to the following entry.
Prompt: pKi lookup needed for COc1cccc(OC)c1OCCNCC1Oc2ccccc2CC1c1ccccc1 (centres undefined) , thanks.
Response: 6.58

Source listed as BindingDB's records for doi:10.1021/jm9910324.
